pKi: recorded values
assay_system: second (BD2: amino acids E352-E168) bromodomain of BRD4 (Homo sapiens, UniProt O60885)
Construct: protocol
method_summary: TR-FRET bromodomain binding assay, BRD4 BD2
test_settings: TR-FRET assay protocol (A-G, compound concentration range); Ki calculated from IC50, probe Kd and probe concentration; read-out: TR-FRET Binding Ki: BRD4 (BDII_E352-M457)
Remember the convention: pKi equals -log10 of concentration in molar.

### Prompt Find the recorded pKi belonging to CCS(=O)(=O)c1ccc(Oc2ccc(F)cc2F)c(-c2cn(C)c(=O)cc2OC2COC2)c1 [Example 318] and report it.
### Response 7.82

### Prompt Entry to check: Cn1nc(-c2ccccc2Oc2ccccc2)c(-c2cccc(C(=O)NC3CC3)c2)cc1=O [Example 177]
### Response 5.97

### Prompt And for CCN(CC)Cc1ccc(-c2cc(=O)n(C)nc2-c2ccccc2Oc2ccccc2)cc1 [Example 69] ?
### Response 6.65

### Prompt Moving on to the next compound: CCCc1cc(=O)n(C)cc1-c1cc(NS(=O)(=O)CC)ccc1Oc1ccc(F)cc1F [Example 359]
### Response 8.29

### Prompt Same read-out for Cn1cc(-c2cc(NC(=O)CN)ccc2Oc2ccccc2)ccc1=O [Example 253] ?
### Response 5.48

### Prompt Entry CCNC(=O)Nc1ccc(Oc2ccccc2)c(-c2nn(C)c(=O)cc2OC)c1 [Example 30] please
### Response 5.88

### Prompt Also need CCS(=O)(=O)Nc1ccc(Oc2ccc(F)cc2F)c(-c2cn(C)c(=O)cc2OCC(F)(F)F)c1 [Example 293] , thanks.
### Response 8.22

### Prompt Entry to check: Cn1nc(-c2ccccc2Oc2ccccc2)c(-c2ccc(CN3CCNCC3)cc2)cc1=O [Example 70]
### Response 7.21

### Prompt Ok, now CCO/C=C\c1cc(=O)n(C)cc1-c1cc(S(C)(=O)=O)ccc1NCC1CC1 [Example 337]
### Response 5.74

### Prompt Next up: CCS(=O)(=O)Nc1ccc(Oc2ccc(F)cc2F)c(-c2cn(C)c(=O)cc2C(F)(F)F)c1 [Example 268]
### Response 7.02

====

assay_system: second (BD2: amino acids E352-E168) bromodomain of BRD4 (Homo sapiens)
Construct: protocol
method_summary: TR-FRET bromodomain binding assay, BRD4 BD2
test_settings: TR-FRET assay protocol (A-G, compound concentration range); Ki calculated from IC50, probe Kd and probe concentration; read-out: TR-FRET Binding Ki: BRD4 (BDII_E352-M457)
outcome_measure: Ki (nM)
Response body: numeric value in nM, unit text excluded.

These recorded examples may help you get a feel for the data.
smiles_input | readout_units | val
CCOC(=O)Nc1cc(-c2cc(S(=O)(=O)CC)ccc2OCC2CC2)cn(C)c1=O | nM | 702
Cn1nc(-c2ccccc2Oc2ccccc2)c(-c2ccc(N3CCOCC3)nc2)cc1=O | nM | 488
COc1cc(=O)n(C)nc1-c1cc(N(C)S(C)(=O)=O)ccc1Oc1ccccc1 | nM | 214
CN(C)C(=O)c1cc(-c2cc(=O)n(C)nc2-c2ccccc2Oc2ccccc2)ccc1F | nM | 6900
CN1CCN(Cc2ccc(-c3cc(=O)n(C)nc3-c3cc(NS(C)(=O)=O)ccc3Oc3ccccc3)cc2)CC1 | nM | 5.13

### Prompt Look up Ki for this compound: CC(C)COc1cccc(-c2cc(=O)n(C)nc2-c2ccccc2Oc2ccccc2)c1
### Response 13500

### Prompt Do the same for CCS(=O)(=O)Nc1ccc(Oc2ccc(C(N)=O)cc2)c(-c2cn(C)c(=O)cc2OCC(F)(F)F)c1 please
### Response 8.3

### Prompt Next record, please: Cn1nc(-c2ccccc2Oc2ccccc2)c(-c2ccc(CO)cc2)cc1=O
### Response 87.5

### Prompt Another compound to check: CC(=O)c1cccc(-c2cc(=O)n(C)nc2-c2ccccc2Oc2ccccc2)c1F
### Response 17700

### Prompt Do the same for CC(C)S(=O)(=O)c1ccc(Oc2ccc(F)cc2F)c(-c2ccc(=O)n(C)c2)c1 please
### Response 153

### Prompt Next: CCS(=O)(=O)Nc1ccc(Oc2ccc(F)cc2F)c(-c2cn(C)c(=O)cc2-c2cnn(C)c2)c1
### Response 0.609
